Values compiled from ChEMBL document CHEMBL2311315.

assayTarget: UniProt:P97612
method: Inhibition of FAAH-mediated [3H]anandamide hydrolysis in rat brain homogenate assessed as [3H]ethanolamine production incubated for 90 mins prior to substrate addition measured after 10 mins by liquid scintillation counting analysis
Type: tissue-based
Hi there, I'd appreciate the recorded IC50 for every entry that follows.
Provide the measurement as a number trailed by its unit.

INPUT: Which IC50 is listed for CCCCCCNC(=O)Oc1cccc(C2=NCCO2)c1 ?
OUTPUT: 0.55 nM

INPUT: Which IC50 is listed for O=C(NC1CCCCC1)Oc1ccc(O)c(-c2ccccc2)c1 ?
OUTPUT: 4.9 nM

----------
assayTarget: UniProt P97612
Sequence (whole entry): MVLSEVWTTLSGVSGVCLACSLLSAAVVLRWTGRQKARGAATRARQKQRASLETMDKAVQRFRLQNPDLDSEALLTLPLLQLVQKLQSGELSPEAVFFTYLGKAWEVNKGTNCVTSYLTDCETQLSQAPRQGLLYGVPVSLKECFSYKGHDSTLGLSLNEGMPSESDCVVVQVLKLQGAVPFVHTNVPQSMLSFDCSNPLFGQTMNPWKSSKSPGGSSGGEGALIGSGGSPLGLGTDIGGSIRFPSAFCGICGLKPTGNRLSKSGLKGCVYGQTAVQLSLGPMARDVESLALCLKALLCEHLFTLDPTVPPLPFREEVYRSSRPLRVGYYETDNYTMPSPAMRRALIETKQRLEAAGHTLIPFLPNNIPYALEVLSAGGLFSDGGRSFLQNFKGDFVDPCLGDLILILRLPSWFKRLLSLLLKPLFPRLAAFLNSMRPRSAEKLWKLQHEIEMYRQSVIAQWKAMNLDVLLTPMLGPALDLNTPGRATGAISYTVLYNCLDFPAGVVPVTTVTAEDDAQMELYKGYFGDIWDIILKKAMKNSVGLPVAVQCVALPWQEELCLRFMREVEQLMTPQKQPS
method: Inhibition of FAAH-mediated [3H]anandamide hydrolysis in rat brain homogenate assessed as [3H]ethanolamine production at 100 nM incubated for 60 mins prior to substrate addition measured after 10 mins by liquid scintillation counting analysis relative to control
Type: tissue-based
valueType: inhibition
Provide the measurement as a number trailed by its unit.

INPUT: API: value(readout=inhibition, system=UniProt P97612) for record O=C(NC1CCCCC1)Oc1ccc(O)c(-c2ccccc2)c1
OUTPUT: 101%

INPUT: API: value(readout=inhibition, system=UniProt P97612) for record O=C(NC1CCC1)Oc1ccc(O)c(-c2ccccc2)c1
OUTPUT: 101%

INPUT: API: value(readout=inhibition, system=UniProt P97612) for record CN1CCC(NC(=O)Oc2cccc(C3=NCCO3)c2)CC1
OUTPUT: 8%

INPUT: API: value(readout=inhibition, system=UniProt P97612) for record CCCCCCNC(=O)Oc1ccc(O)c(-c2ccccc2)c1
OUTPUT: 100%

INPUT: API: value(readout=inhibition, system=UniProt P97612) for record O=C(NC1CCCCC1)Oc1cccc(C2=NCCO2)c1
OUTPUT: 99%

INPUT: API: value(readout=inhibition, system=UniProt P97612) for record CCCCCCNC(=O)Oc1cccc(C2=NCCO2)c1
OUTPUT: 100%

----------
method: Half life in phosphate buffer at pH 7.4 by HPLC analysis
Assay type: physicochemical
Hi there, I'd appreciate the recorded t1/2 for every entry that follows.
# value in h; strip the unit string

INPUT: Which t1/2 is listed for O=C(NC1CCCCC1)Oc1ccc(O)c(-c2ccccc2)c1 ?
OUTPUT: 121

INPUT: Which t1/2 is listed for CCCCCCNC(=O)Oc1cccc(C2=NCCO2)c1 ?
OUTPUT: 8.7

INPUT: Which t1/2 is listed for CN1CCC(NC(=O)Oc2cccc(C3=NCCO3)c2)CC1 ?
OUTPUT: 0.8
